All figures here come from patent US20250154169A1.

Below, each entry is listed alongside its reported AC50.
# Tested on: HTT mRNA
# ASSAY TEXT: Splicing RT-qPCR assay, HTT canonical (CJ) and alternative (AJ) junction mRNA
# Assay type: cell-based, human
# ASSAY SETUP: Homo sapiens, A673 or K562 cells, 24 hours compound treatment, read-out: HTT AJ (AC50, increase in alternative junction mRNA)
# Method: Compounds described herein were used to modulate RNA transcript abundance in cells. The expression of a target mRNA was measured by detecting the formation of an exon-exon junction in the canonical transcript (CJ). A compound mediated exon-inclusion event was detected by observing an increase in formation of a new junction with an alternative exon (AJ). Real-time qPCR assays were used to detect these splicing switches and interrogate the potency of various compounds towards different target genes. […]
Counter-ions that a name gives are not always drawn.

Known results for compounds:
In [3]: df
Out[3]:
                                   compound  value_measured
0  CCn1cc2c(N3CC4(CNC4)C3)ccc(C(=O)Nc3cc(F)c4nc(C)cn4c3)c2n1         > 10 µM
1  Cc1nc2c(C)nc(NC(=O)c3ccc(N4CCNCC4)c4cn(C)nc34)cc2o1      1 to 10 µM
2  Cc1cn2cc(NC(=O)c3ccc(N4CCNCC4)c4cn(Cc5ccc6[nH]ncc6c5)nc34)cc(F)c2n1         > 10 µM

Turning now to a further record.
Query: Quick check: AC50 of Cc1c(O)c(NC(=O)c2ccc(N3CCNCC3)c3cn(C)nc23)cc2cn(C)nc12 [Compound 325, hydrochloride] ?
Result: > 10 µM
